Hello, the source for this data is patent US10858342B2, in case you need it.

Reported IC50 values for the following compounds.
biological target: cortisol synthase (CYP11B1) (Macaca fascicularis, UniProt A0A2K5ULY1); assay: Inhibition of cortisol synthesis (cynomolgus adrenal mitochondria, cortisol by mass spectrometry); format: biochemical, cynomolgus monkey; settings: read-out: Cortisol Inhibition IC50; 11-deoxycortisol substrate, 150 units CYP11B1

Ask: # input compound: `N#Cc1ccc(-n2cnc3c2C(=O)CC2(CCOCC2)C3)cc1Cl` ; wanted: its IC50
Result: 2.9 µM

Ask: Quick one: IC50 for `CC1(C)CC(=O)c2c(ncn2-c2ccc(C#N)c(Cl)c2)C1` ?
Result: 0.11 µM

Ask: Requested field: IC50. Item: `N#Cc1ccc(-n2cnc3c2C(=O)CC2(CCC2)C3)cc1Cl`
Result: 0.093 µM

Ask: What does the data say about its IC50? Entry: `N#Cc1ccc(-n2cnc3c2C(=O)C[C@@H](C(N)=O)C3)cc1Cl`
Result: > 30 µM

Ask: Look up IC50: CCOC(=O)C1CC(=O)c2c(ncn2-c2ccc(C#N)c(Cl)c2)C1 (stereo not drawn)
Result: 5.1 µM

====

biological target: aldosterone synthase (CYP11B2) (Macaca fascicularis); test: Inhibition of aldosterone synthase (cynomolgus adrenal mitochondria, aldosterone by mass spectrometry); type: biochemical, cynomolgus monkey; conditions: 2 μM corticosterone substrate, 50 units CYP11B2, 90 min, 37° C.; read-out: Aldosterone Inhibition IC50
Observed Property: pIC50
// returns pIC50 (minus log10 of molar concentration), number only

Ask: GET /values?readout=pIC50&item= `CC1(C)CC(=O)c2c(ncn2[C@H]2CC[C@@H](C#N)CC2)C1`
Result: 7.66

Ask: Would you kindly share the measured pIC50 for `CC1(C)CC(=O)c2c(ncn2-c2ccc(Cl)c(F)c2)C1` ?
Result: 8.33

Ask: Data request, read-out pIC50, for `CC1(C)CC(=O)c2c(ncn2-c2cccc(C#N)c2)C1`
Result: 6.60

Ask: Requested field: pIC50. Item: `O=C1CCCc2ncn(C3Cc4ccccc4C3)c21`
Result: 7.68

Ask: State the recorded pIC50 for this entry: CC1(C)CC(=O)c2c(ncn2C2CCc3ccccc3C2)C1 (stereo not shown)
Result: 8.00

Ask: Consider the compound `CN1C(=O)CCc2cc(-n3cnc4c3C(=O)CC3(CCC3)C4)ccc21` and give its measured pIC50.
Result: 7.33

Ask: Which pIC50 reading was recorded for the compound CC1(C)CC(=O)c2c(ncn2C2CCc3cc(Br)ccc3C2)C1 (stereo not shown) ?
Result: 7.28

Ask: Given `Cc1cc(-n2cnc3c2C(=O)CC2(CCOCC2)C3)ccc1C#N` , state its recorded pIC50.
Result: 7.11

Ask: Given CC1(C)CC(=O)c2c(ncn2C2CCC3CCCCC3C2)C1 (stereo not shown) , state its recorded pIC50.
Result: 6.38

Ask: Which pIC50 reading was recorded for the compound `Cc1ccc(-n2cnc3c2C(=O)CC(C)(C)C3)cc1` ?
Result: 7.66

====

target: cortisol synthase (CYP11B1) (Macaca fascicularis); assay: Inhibition of cortisol synthesis (cynomolgus adrenal mitochondria, cortisol by mass spectrometry); assay type: biochemical, cynomolgus monkey; conditions: 11-deoxycortisol substrate, 150 units CYP11B1; read-out: Cortisol Inhibition IC50
Listed compounds paired with reported log10 IC50
Please be aware that the numbers have been log10-transformed from IC50 in µM.

Completed entries (count: 4):
CC1(C)CC(=O)c2c(ncn2C2CCCCC2)C1 [C-ACK] = 0.79
O=C1CCCc2ncn(C3Cc4ccccc4C3)c21 [C-ADK] = 0.92
CC1(C)CC(=O)c2c(ncn2-c2ccc(Cl)c(F)c2)C1 [C-ABM] = -0.11
CC1(C)CC(=O)c2c(ncn2Cc2ccc(-n3cncn3)cc2)C1 [C-ADB] = 0.87

Ask: May I ask what log10 IC50 has been recorded for O=C1CC2(CCOCC2)Cc2ncn(-c3ccc(Cl)cc3)c21 [C-AAR] ?
Result: 0.70

Ask: Fill in the blank: the reported log10 IC50 of CC1(C)CC(=O)c2c(ncn2C2CCC3CCCCC3C2)C1 (stereo not drawn) [C-ACO] is ____.
Result: 1.15

Ask: Recorded log10 IC50 of CN(C)c1ccc(-n2cnc3c2C(=O)CC(C)(C)C3)cc1 [C-ABO] , please.
Result: 1.54

Ask: # lookup: log10 IC50 of CC(=O)N1CCCc2cc(-n3cnc4c3C(=O)CCC4)ccc21 [C-AAF]
Result: 1.00

Ask: Look up log10 IC50 for this compound: CC1(C)CC(=O)c2c(ncn2-c2ccc(Cl)c(Cl)c2)C1 [C-ABD]
Result: -0.43

====

molecular target: aldosterone synthase (CYP11B2) (Macaca fascicularis, UniProt A0A2K5UPL9); assay: Inhibition of aldosterone synthase (cynomolgus adrenal mitochondria, aldosterone by mass spectrometry); assay type: biochemical, cynomolgus monkey; settings: 2 μM corticosterone substrate, 50 units CYP11B2, 90 min, 37° C.; read-out: Aldosterone Inhibition IC50
Sequence (A0A2K5UPL9 1-503): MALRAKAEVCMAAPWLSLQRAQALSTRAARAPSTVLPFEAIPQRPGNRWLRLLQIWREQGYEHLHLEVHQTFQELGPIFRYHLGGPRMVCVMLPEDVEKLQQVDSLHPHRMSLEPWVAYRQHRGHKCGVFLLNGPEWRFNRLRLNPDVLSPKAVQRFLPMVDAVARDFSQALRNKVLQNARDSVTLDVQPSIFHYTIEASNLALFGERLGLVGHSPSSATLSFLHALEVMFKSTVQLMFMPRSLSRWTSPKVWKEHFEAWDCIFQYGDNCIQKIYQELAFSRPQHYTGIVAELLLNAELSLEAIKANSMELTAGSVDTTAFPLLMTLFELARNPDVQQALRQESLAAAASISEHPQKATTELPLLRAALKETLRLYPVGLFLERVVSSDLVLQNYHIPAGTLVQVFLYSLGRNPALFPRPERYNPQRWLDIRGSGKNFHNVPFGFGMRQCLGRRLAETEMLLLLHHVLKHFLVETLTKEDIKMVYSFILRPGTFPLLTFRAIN
// classify: if (IC50 < 7 nM) true else false

Ask: Record `O=C1CCCc2ncn(-c3ccc(Cl)c(Cl)c3)c21` : is its IC50 strictly below 7 nM?
Result: true

Ask: Please determine if CC1CCc2ncn(-c3ccc(C#N)cc3)c2C1=O (stereo not shown) is below 7 nM in terms of IC50.
Result: false

Ask: Answer whether the compound CCOC(=O)C1CC(=O)c2c(ncn2-c2ccc(C#N)c(Cl)c2)C1 (stereo not shown) has IC50 strictly less than 7 nM
Result: false

Ask: Report whether reported IC50 is lower than 7 nM (strictly) for `CC1(C)CC(=O)c2c(ncn2-c2ccc(F)c(F)c2)C1`
Result: false

====

Measured pIC50 of individual entries
molecular target: aldosterone synthase (CYP11B2) (Macaca fascicularis); test: Inhibition of aldosterone synthase (cynomolgus adrenal mitochondria, aldosterone by mass spectrometry); format: biochemical, cynomolgus monkey; details: 2 μM corticosterone substrate, 50 units CYP11B2, 90 min, 37° C.; read-out: Aldosterone Inhibition IC50
Please note pIC50 is a logarithmic value: minus log10 of concentration in mol/L. Answer with that number alone.

Take a look at these entries with their results.
CC1(C)CCc2ncn(-c3ccc(C#N)cc3)c2C1=O [C-ADX] = 7.85
N#Cc1ccc(-n2cnc3c2C(=O)CCC3)cc1 [C-AAL] = 7.72
CC1(C)CC(=O)c2c(ncn2Cc2ccc(C(=O)N3CC[C@@H](O)C3)cc2)C1 [C-ADT] = 6.54

Ask: Could you tell me which pIC50 is on file for COc1ccc2c(c1)CCC(n1cnc3c1C(=O)CC(C)(C)C3)C2 (stereo not shown) [C-ACN] ?
Result: 7.62

Ask: # pIC50 lookup, item CC1(C)CC(=O)c2c(ncn2-c2ccc(Cl)c(Cl)c2)C1 [C-ABD]
Result: 8.51

Ask: Query: pIC50; subject: CN1C(=O)CCc2cc(-n3cnc4c3C(=O)CC3(CCOCC3)C4)ccc21 [C-AAP]
Result: 6.34

Ask: Report pIC50 for CC1(C)CC(=O)c2c(ncn2CC2CCCCC2)C1 [C-ACP] please.
Result: 7.62

Ask: Dear colleague, I am looking for the recorded pIC50 of the following compound: CC1(C)CC(=O)c2c(ncn2C2CCc3ncncc3C2)C1 (stereo not shown) [C-ACV]
Result: 6.07

Ask: Fill in: pIC50 of CC1(C)CC(=O)c2c(ncn2C2CCCc3ccccc32)C1 (stereo not shown) [C-ACS] is ___
Result: 7.03

Ask: // query pIC50 value for entry N#Cc1ccc(-n2cnc3c2C(=O)CC2(CCC2)C3)cc1 [C-AAT]
Result: 8.42

====

biological target: cortisol synthase (CYP11B1) (Macaca fascicularis, UniProt A0A2K5ULY1); assay: Inhibition of cortisol synthesis (cynomolgus adrenal mitochondria, cortisol by mass spectrometry); assay type: biochemical, cynomolgus monkey; settings: 11-deoxycortisol substrate, 150 units CYP11B1; read-out: Cortisol Inhibition IC50
Observed Property: pIC50
// pIC50 is dimensionless: -log10 of concentration (M)

Observe how each entry below is paired with its result.
COc1ccc(Cn2cnc3c2C(=O)CC(C)(C)C3)cc1 = 5.68
CN1CCOc2cc(Cn3cnc4c3C(=O)CC(C)(C)C4)cnc21 = 4.96

Turning now to a further molecule:
Ask: Param item = `Cc1cc(-n2cnc3c2C(=O)CC(C)(C)C3)ccc1C#N` ; retrieve measured pIC50.
Result: 6.89

====

biological target: UniProt A0A2K5ULY1; experiment: Inhibition of cortisol synthesis (cynomolgus adrenal mitochondria, cortisol by mass spectrometry); type: biochemical, cynomolgus monkey; settings: 11-deoxycortisol substrate, 150 units CYP11B1; read-out: Cortisol Inhibition IC50
Observed Property: IC50 (µM)
Hi! Could you send only the number? It should be in µM, unit omitted.

CC1(C)CC(=O)c2c(ncn2Cc2ccc(C(C)(C)O)cc2)C1 = 0.035
N#Cc1ccc(-n2cnc3c2C(=O)CCC3)c(C2CC2)c1 = 17
COc1ccc(-n2cnc3c2C(=O)CC(C)(C)C3)cc1 = 21

Ask: Given `CC1(C)CC(=O)c2c(ncn2CC2CCCCC2)C1` , state its recorded IC50.
Result: 5.9

Ask: # IC50 lookup, item `CC1(C)CC(=O)c2c(ncn2CC2CC2)C1`
Result: 12

Ask: Would you kindly share the measured IC50 for O=C1CCCc2ncn(C3CCc4ccccc4C3)c21 (stereo not shown) ?
Result: 1.2

Ask: I am curious: what IC50 value has been reported for `CC1(C)CC(=O)c2c(ncn2-c2ccc(C(F)(F)F)cc2)C1` ?
Result: 18

Ask: IC50 for `CC(=O)Nc1ccc(Cn2cnc3c2C(=O)CC(C)(C)C3)cc1` ?
Result: 1.9

Ask: Need IC50 of `CC(=O)c1ccc(-n2cnc3c2C(=O)CC(C)(C)C3)cc1` , thanks.
Result: 8.8
